These measurements were taken from patent US20120237528A1.

SYSTEM_TESTED: T1, recombinant extracellular domain (ECD) of human TF, amino acid 1-219 of the mature chain, C-terminal His6-tag (human, UniProt P13726 33-251)
T1 construct: expressed in a mammalian system; used for ELISA and Biacore; biotinylated by NHS-ester for the Fab ELISA; also called His6-TF-ECD1-219; HumanTF1-219
ASSAY_NOTES: direct ELISA, 50 ng/ml

[
  {
    "BINDER": "M67 (antibody, V domains shown, complete MAb; FR4 is its own entry; also called H23/L4) VH: QVQLVQSGAEVKKPGSSVKVSCKASGYTFITYWIEWVRQAPGQGLEWMGDILPGSGSTNYAQKFQGRVTITADESTSTAYMELSSLRSEDTAVYYCARSGYYGNSGFAYWGQGTLVTVSS VL: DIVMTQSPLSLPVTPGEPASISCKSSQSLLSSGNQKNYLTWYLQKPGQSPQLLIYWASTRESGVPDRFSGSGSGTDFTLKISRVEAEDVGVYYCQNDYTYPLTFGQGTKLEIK",
    "binding result": "binds"
  },
  {
    "BINDER": "M30 (antibody, V domains shown, complete MAb; FR4 is its own entry; also called H18/L2) VH: EVQLVESGGGLVQPGGSLRLSCAASGYTFITYWIEWVRQAPGKGLVWVSDILPGSGSTNYNENFKGRFTISRDNAKNTLYLQMNSLRAEDTAVYYCARSGYYGNSGFAYWGQGTLVTVSS VL: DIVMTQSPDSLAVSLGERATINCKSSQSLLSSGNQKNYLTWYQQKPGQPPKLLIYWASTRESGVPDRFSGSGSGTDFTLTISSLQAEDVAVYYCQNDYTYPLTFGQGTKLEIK",
    "binding result": "binds"
  },
  {
    "BINDER": "M31 (antibody, V domains shown, complete MAb; FR4 is its own entry; also called H18/L3) VH: EVQLVESGGGLVQPGGSLRLSCAASGYTFITYWIEWVRQAPGKGLVWVSDILPGSGSTNYNENFKGRFTISRDNAKNTLYLQMNSLRAEDTAVYYCARSGYYGNSGFAYWGQGTLVTVSS VL: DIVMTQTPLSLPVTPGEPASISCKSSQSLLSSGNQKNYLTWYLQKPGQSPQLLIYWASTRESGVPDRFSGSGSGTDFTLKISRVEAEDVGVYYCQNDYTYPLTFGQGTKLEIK",
    "binding result": "binds"
  }
]
